TGI overview
Test system: EKVX NSCLC
experimentNotes: NCI tumour cell line growth inhibition, 48 h

# annotated cases, reported TGI shown
molecule: Cc1cc(=O)oc2cc(OCc3nc4ccccc4c(=O)n3-c3ccccc3)ccc12
TGI: > 100 µM

molecule: NCCCCCCCCCCn1c2c(c3ccccc3c1=O)C(=O)c1ccccc1-2
TGI: 37.8 µM

molecule: OC1c2ccccc2CCC1C(O)(C(F)(F)F)C(F)(F)F (stereo unspecified)
TGI: > 100 µM

molecule: CN(CCCCCl)P(=O)(OCC1=CC(=O)c2ccccc2C1=O)OC[C@H]1O[C@@H](n2cc(F)c(=O)[nH]c2=O)C[C@@H]1O (stereo partly specified)
TGI: 21.2 µM

molecule: C=Cc1nc2nnc(CCCCCCCCc3nnc4nc(C=C)[nH]n34)n2[nH]1
TGI: > 100 µM

# context switch: different molecule, same TGI
Q. // fetch TGI given entry Clc1cccc(Cl)c1C1SCc2nc3ccccc3n21 (stereo unspecified)
A. > 100 µM

====

Tested on: SR leukemia
experimentNotes: NCI tumour cell line growth inhibition, 48 h
TGI overview
Response body: numeric value in µM, unit text excluded.

# annotated cases, reported TGI shown
compound: CC(C)(C)c1ccc(C(C)(C)C)c(N2C(=O)[C@@H]3[C@@H]4C=C[C@@H](C4)[C@]3(C)C2=O)c1
TGI (µM): 39.9

compound: CO[C@@H]1C[C@H](OC(N)=O)[C@@H]2C=C[C@@H]3/C=C(C)/C=C/[C@@H](C)[C@H]([C@H](C)[C@H](O)[C@@H](C)NC(C)=O)OC(=O)/C=C/C=C(C)\C=C\[C@]3(C)[C@@H]2C1
TGI (µM): 0.887

compound: CC(C)=CCC/C(C)=C/CC/C(C)=C/CC/C(C)=C/CSC[C@H](NC(=O)CCCCCN1CCN(C)CC1)C(=O)NC1CCCCC1
TGI (µM): 6.27

Q. // fetch TGI given entry O=C(CC1(O)C(=O)Nc2c(Cl)ccc(Cl)c21)c1ccco1 (stereo not drawn)
A. 14.8

Q. // fetch TGI given entry "N#Cc1c(-c2ccccc2)cc(-c2ccccc2)n(CCCC(=O)NO)c1=O"
A. 3.65

Q. // fetch TGI given entry "COC1=CC(=Nc2c(Cl)cc(Cl)cc2OC(=O)c2ccc([N+](=O)[O-])cc2)C=C(OC)C1=O"
A. 15.3

====

TGI overview
Test system: A549 NSCLC
experimentNotes: NCI tumour cell line growth inhibition, 48 h

# annotated cases, reported TGI shown
substanceSmiles: CC(C)(C)c1ccc(C(C)(C)C)c(N2C(=O)[C@@H]3[C@@H]4C=C[C@@H](C4)[C@]3(C)C2=O)c1
assayedSystem: A549 NSCLC
TGI: > 100 µM

substanceSmiles: c1ccc2c(c1)SC1=C(SC(=C3SC4=C(S3)Sc3ccccc3S4)S1)S2
assayedSystem: A549 NSCLC
TGI: > 100 µM

substanceSmiles: O=C(c1ccc(Cl)cc1)c1no[n+]([O-])c1C(=O)c1ccc(Cl)cc1
assayedSystem: A549 NSCLC
TGI: 62.1 µM

substanceSmiles: CC(=O)O[C@H]1C(=O)[C@@]2(C)[C@H]([C@H](OC(=O)c3ccccc3)[C@]3(O)C[C@H](OC(=O)[C@H](O)[C@@H](NC(=O)c4ccccc4)c4ccccc4C)C(C)=C1C3(C)C)[C@]1(OC(C)=O)CO[C@@H]1C[C@@H]2O
assayedSystem: A549 NSCLC
TGI: > 25 µM

substanceSmiles: CCn1cc(C(=O)O)c(=O)c2cc(F)c(N3CCN(CN4C(=O)/C(=N\c5ncc(Cc6cc(OC)c(OC)c(OC)c6)c(N)n5)c5cc(Cl)ccc54)CC3)cc21
assayedSystem: A549 NSCLC
TGI: > 100 µM

# context switch: different compound, same TGI
Q. // fetch TGI given entry "O=C(Nc1nc(-c2ccc(Cl)cc2)cs1)c1cc(-c2ccc(Br)cc2)nc2ccc(Cl)cc12"
A. > 100 µM

====

TGI overview
Tested on: SF-268 CNS
experimentNotes: NCI tumour cell line growth inhibition, 48 h

# annotated cases, reported TGI shown
compound: C/C(=C\COc1cc(O)c2c(c1)C(=O)c1cc(C)cc(O)c1C2=O)CCC1OC1(C)C (centres undefined)
TGI: > 100 µM
--
compound: c1ccc2c(c1)SC1=C(SC(=C3SC4=C(S3)Sc3ccccc3S4)S1)S2
TGI: > 100 µM
--
compound: Oc1ccc(O)c(Cc2ccccc2)c1
TGI: 27.8 µM
--
compound: CCC(CC)c1nc(Nc2cccc(OC)c2)c2ccccc2n1
TGI: 29.5 µM
--
compound: OC(c1ccoc1)c1cc2ccccc2s1 (centres undefined)
TGI: > 10 µM
--
compound: CN(C)/C=C1\CCc2ccc([N+](=O)[O-])cc2C1=O
TGI: > 100 µM
--
compound: O=S1(=O)OCCOS(=O)(=O)C1(Br)Cc1ccccc1
TGI: > 100 µM
--
compound: COc1cc([C@@H]2c3cc4c(cc3[C@@H](Nc3ccc(N=Cc5ccc(C(=O)O[C@@H](C(=O)O[C@H]6C[C@@]7(O)[C@@H](OC(=O)c8ccccc8)[C@@H]8[C@]9(OC(C)=O)CO[C@@H]9C[C@H](O)[C@@]8(C)C(=O)[C@H](OC(C)=O)C(=C6C)C7(C)C)[C@@H](NC(=O)c6ccccc6)c6ccccc6)cc5)cc3)[C@H]3COC(=O)[C@H]23)OCO4)cc(OC)c1O
TGI: > 45.6 µM

Q. // fetch TGI given entry "CS(=O)(=O)O[C@H]1C(=O)N(c2cc3c4ccccc4ccc3c3ccccc23)[C@@H]1c1ccccc1"
A. > 100 µM

Q. // fetch TGI given entry "CCNC(=O)N(CC)CN(CC)C(=O)NCC"
A. > 100 µM

Q. // fetch TGI given entry "O=C(Cc1nc2ccccc2o1)C(=O)Nc1ccccc1C(F)(F)F"
A. > 100 µM

Q. // fetch TGI given entry CCOC(=O)C(C)c1c(C(=O)c2ccc(C)nc2)c2ccccc2n1C (centres undefined)
A. > 100 µM

Q. // fetch TGI given entry "C[C@H](CCC(=O)O)[C@H]1CC[C@H]2[C@@H]3CC[C@@H]4C[C@H](O)CC[C@]4(C)[C@H]3CC[C@]12C"
A. > 100 µM

Q. // fetch TGI given entry "C1CSC(Sc2nc(SC3=NCCS3)nc(SC3=NCCS3)n2)=N1"
A. > 100 µM

Q. // fetch TGI given entry "C[n+]1c(-c2ccccc2)c2cc(N)ccc2c2ccccc21"
A. 7.07 µM

Q. // fetch TGI given entry "Cc1cc(Nc2ccc(S(=O)(=O)O)cc2)c2ccccc2n1"
A. > 100 µM

Q. // fetch TGI given entry "CO[C@@H]1C[C@H](OC(N)=O)[C@@H]2C=C[C@@H]3/C=C(C)/C=C/[C@@H](C)[C@H]([C@H](C)[C@H](O)[C@@H](C)NC(C)=O)OC(=O)/C=C/C=C(C)\C=C\[C@]3(C)[C@@H]2C1"
A. 4.95 µM

Q. // fetch TGI given entry CN(CCCCCl)P(=O)(OCC1=CC(=O)c2ccccc2C1=O)OC[C@H]1O[C@@H](n2cc(F)c(=O)[nH]c2=O)C[C@@H]1O (some centres undefined)
A. 12.6 µM

Q. // fetch TGI given entry "Cc1nc2ccccn2c1N=Nc1ccc(C(=O)NN)cc1"
A. > 100 µM

====

TGI overview
Tested on: NCI-H460 lung
experimentNotes: NCI tumour cell line growth inhibition, 48 h
Response body: numeric value in µM, unit text excluded.

# annotated cases, reported TGI shown
molecule: CCC(CC)c1nc(Nc2cccc(OC)c2)c2ccccc2n1
endpointUnit: µM
TGI: 38.4
--
molecule: CC(=O)Nc1ccc(S(=O)(=O)Nc2nc(-c3ccc(Cl)cc3)cc(N3N=C(c4ccc(Br)cc4)CC3c3ccccc3)n2)cc1 (stereo not given)
endpointUnit: µM
TGI: 44.3
--
molecule: Cc1c2c(cc3c1[nH]c1ccccc13)C(c1ccc(Cl)cc1)=NCC2
endpointUnit: µM
TGI: 1.33

# context switch: different molecule, same TGI
Q. // fetch TGI given entry "O=[N+]([O-])c1ccc(C2=Nn3c(nnc3-c3ccccc3)SC2)o1"
A. 41.6

====

TGI overview
Tested on: IGROV1 ovarian
experimentNotes: NCI tumour cell line growth inhibition, 48 h
Response body: numeric value in µM, unit text excluded.

# annotated cases, reported TGI shown
molecule: COc1cc(/C=C/c2cc(/C=C/c3ccc(O)c(OC)c3)n(-c3c(Cl)cccc3Cl)c(=O)n2)ccc1O
TGI, µM: 12.3
//
molecule: Cc1c2c(cc3c1[nH]c1ccccc13)C(c1ccc(Cl)cc1)=NCC2
TGI, µM: 24.1
//
molecule: CN(C)CCNc1ccc2nnn3c4ccccc4c(=O)c1c23
TGI, µM: 26.5

# context switch: different molecule, same TGI
Q. Provide TGI, system IGROV1 ovarian, entry Cc1[nH]c(=O)[nH]c(=S)c1C(=O)NC1C2CCCCC2NC2CCCCC21 (stereo not given)
A. 33.2
